Anti-HBs IgG antibody level in serum (ELISA absorbance at 415 nm) overview
Tested on: hepatitis B virus surface antigen (HBs)
method: Hepatitis-vaccine enhancing activity (adjuvant activity): anti-HBs IgG in mouse serum by ELISA
Format: in vivo, female CDF1 mice
appliedConditions: Experiment 1; 3 W; 5000-fold dilution
Entry rule: numbers only, all in O.D 415 nm.

Worked cases, Anti-HBs IgG antibody level in serum (ELISA absorbance at 415 nm) given:
sampleSmiles: CCCCCCCCCCCCCC(=O)O[C@H](CCCCCCCCCCC)CC(=O)O[C@H]1O[C@H](COC(=O)CCCCCCCCC)[C@@H](O)[C@H](O[C@H](C)C(=O)N[C@@H](C)C(=O)N[C@H](CCC(=O)OC)C(N)=O)[C@H]1NC(C)=O
readoutUnit: O.D 415 nm
measValue: 0.124

sampleSmiles: CCCCCCCCCCCCCCCCCC(=O)OC[C@H]1O[C@@H](SC(=O)C[C@@H](CCCCCCCCCCC)OC(=O)CCCCCCCCCCCCC)[C@H](NC(C)=O)[C@@H](O[C@H](C)C(=O)N[C@@H](C)C(=O)N[C@H](CCC(=O)OC)C(N)=O)[C@@H]1O
readoutUnit: O.D 415 nm
measValue: 0.103

sampleSmiles: CCCCCCCCCCCCCCCCCC(=O)OC[C@H]1O[C@H](OC(=O)C[C@@H](CCCCCCCCCCC)OC(=O)CCCCCCCCCCCCC)[C@H](NC(C)=O)[C@@H](O[C@H](C)C(=O)N[C@@H](C)C(=O)N[C@H](CCC(=O)OC)C(N)=O)[C@@H]1O
readoutUnit: O.D 415 nm
measValue: 0.126

sampleSmiles: CCCCCCCCCCCCCC(=O)OC[C@H]1O[C@H](OC(=O)C[C@@H](CCCCCCCCCCC)OC(=O)CCCCCCCCCCCCC)[C@H](NC(C)=O)[C@@H](O[C@H](C)C(=O)N[C@@H](C)C(=O)N[C@H](CCC(=O)OC)C(N)=O)[C@@H]1O
readoutUnit: O.D 415 nm
measValue: 0.111

What value of Anti-HBs IgG antibody level in serum (ELISA absorbance at 415 nm) has been reported for the following compound? CCCCCCCCCCCCCCC(CCCCCCCCCCCCCC)C(=O)S[C@@H]1O[C@H](CO)[C@@H](O)[C@H](O[C@H](C)C(=O)N[C@@H](C)C(=O)N[C@H](CCC(=O)OC)C(N)=O)[C@H]1NC(C)=O
0.076

What value of measured Anti-HBs IgG antibody level in serum (ELISA absorbance at 415 nm) is listed for CCCCCCCCCCCCCC(=O)O[C@H](CCCCCCCCCCC)CC(=O)S[C@@H]1O[C@H](COC(=O)CCCCCCCCC)[C@@H](O)[C@H](O[C@H](C)C(=O)N[C@@H](C)C(=O)N[C@H](CCC(=O)OC)C(N)=O)[C@H]1NC(C)=O ?
0.104

Fill in: Anti-HBs IgG antibody level in serum (ELISA absorbance at 415 nm) of CCCCCCCCCCCCCC(=O)O[C@H](CCCCCCCCCCC)CC(=O)S[C@@H]1O[C@H](CO)[C@@H](O)[C@H](O[C@H](C)C(=O)N[C@@H](C)C(=O)N[C@H](CCC(=O)OC)C(N)=O)[C@H]1NC(C)=O is ___
0.111

Entry CCCCCCCCCCCCCCC(CCCCCCCCCCCCCC)C(=O)S[C@@H]1O[C@H](COC(=O)CCCCCCCCC)[C@@H](O)[C@H](O[C@H](C)C(=O)N[C@@H](C)C(=O)N[C@H](CCC(=O)OC)C(N)=O)[C@H]1NC(C)=O has what Anti-HBs IgG antibody level in serum (ELISA absorbance at 415 nm)?
0.114
